- MEASUREMENT_NOTES: total protein half-life in vivo (active degradation + dilution); higher = more stable protein
- APPLIED_CONDITIONS: wild type E. coli NCM3722; growth: C-lim chemostat; doubling time 12 h
READOUT_TYPE: total protein half-life in vivo (h)

[
  {
    "RECORD_SEQUENCE": "MERLKRMSVFAKVVEFGSFTAAARQLQMSVSSISQTVSKLEDELQVKLLNRSTRSIGLTEAGRIYYQGCRRMLHEVQDVHEQLYAFNNTPIGTLRIGCSSTMAQNVLAGLTAKMLKEYPGLSVNLVTGIPAPDLIADGLDVVIRVGALQDSSLFSRRLGAMPMVVCAAKSYLTQYGIPEKPADLSSHSWLEYSVRPDNEFELIAPEGISTRLIPQGRFVTNDPMTLVRWLTAGAGIAYVPLMWVINEINRGELEILLPRYQSDPRPVYALYTEKDKLPLKVQVVINSLTDYFVEVGKLFQEMHGRGKEK",
    "MEASURED_VALUE": 11
  },
  {
    "RECORD_SEQUENCE": "MQKRAIYPGTFDPITNGHIDIVTRATQMFDHVILAIAASPSKKPMFTLEERVALAQQATAHLGNVEVVGFSDLMANFARNQHATVLIRGLRAVADFEYEMQLAHMNRHLMPELESVFLMPSKEWSFISSSLVKEVARHQGDVTHFLPENVHQALMAKLA [P0A6I6]",
    "MEASURED_VALUE": 10.8
  },
  {
    "RECORD_SEQUENCE": "MDQAGIIRDLLIWLEGHLDQPLSLDNVAAKAGYSKWHLQRMFKDVTGHAIGAYIRARRLSKSAVALRLTARPILDIALQYRFDSQQTFTRAFKKQFAQTPALYRRSPEWSAFGIRPPLRLGEFTMPEHKFVTLEDTPLIGVTQSYSCSLEQISDFRHEMRYQFWHDFLGNAPTIPPVLYGLNETRPSQDKDDEQEVFYTTALAQDQADGYVLTGHPVMLQGGEYVMFTYEGLGTGVQEFILTVYGTCMPMLNLTRRKGQDIERYYPAEDAKAGDRPINLRCELLIPIRR [P0ACI0]",
    "MEASURED_VALUE": 11.3
  }
]

###

- MEASUREMENT_NOTES: total protein half-life in vivo (active degradation + dilution); higher = more stable protein
- APPLIED_CONDITIONS: E. coli NCM3722 delta-smpB; growth: N-lim chemostat; doubling time 6 h
Examples of sequences with documented total protein half-life in vivo follow.

[
  {
    "RECORD_SEQUENCE": "MSHPALTQLRALRYCKEIPALDPQLLDWLLLEDSMTKRFEQQGKTVSVTMIREGFVEQNEIPEELPLLPKESRYWLREILLCADGEPWLAGRTVVPVSTLSGPELALQKLGKTPLGRYLFTSSTLTRDFIEIGRDAGLWGRRSRLRLSGKPLLLTELFLPASPLY",
    "total protein half-life in vivo": "2.14 h"
  },
  {
    "RECORD_SEQUENCE": "MYYPFVRKALFQLDPERAHEFTFQQLRRITGTPFEALVRQKVPAKPVNCMGLTFKNPLGLAAGLDKDGECIDALGAMGFGSIEIGTVTPRPQPGNDKPRLFRLVDAEGLINRMGFNNLGVDNLVENVKKAHYDGVLGINIGKNKDTPVEQGKDDYLICMEKIYAYAGYIAINISSPNTPGLRTLQYGEALDDLLTAIKNKQNDLQAMHHKYVPIAVKIAPDLSEEELIQVADSLVRHNIDGVIATNTTLDRSLVQGMKNCDQTGGLSGRPLQLKSTEIIRRLSLELNGRLPIIGVGGIDSVIAAREKIAAGASLVQIYSGFIFKGPPLIKEIVTHI [P0A7E1]",
    "total protein half-life in vivo": "6.46 h"
  },
  {
    "RECORD_SEQUENCE": "MQKIVIVANGAPYGSESLFNSLRLAIALREQESNLDLRLFLMSDAVTAGLRGQKPGEGYNIQQMLEILTAQNVPVKLCKTCTDGRGISTLPLIDGVEIGTLVELAQWTLSADKVLTF [P0AB52]",
    "total protein half-life in vivo": "4.81 h"
  },
  {
    "RECORD_SEQUENCE": "MSKSHPRWRLAKKILTWLFFIAVIVLLVVYAKKVDWEEVWKVIRDYNRVALLSAVGLVVVSYLIYGCYDLLARFYCGHKLAKRQVMLVSFICYAFNLTLSTWVGGIGMRYRLYSRLGLPGSTITRIFSLSITTNWLGYILLAGIIFTAGVVELPDHWYVDQTTLRILGIGLLMIIAVYLWFCAFAKHRHMTIKGQKLVLPSWKFALAQMLISSVNWMVMGAIIWLLLGQSVNYFFVLGVLLVSSIAGVIVHIPAGIGVLEAVFIALLAGEHTSKGTIIAALLAYRVLYYFIPLLLALICYLLLESQAKKLRAKNEAAM",
    "total protein half-life in vivo": "4.62 h"
  },
  {
    "RECORD_SEQUENCE": "MKKLKLHGFNNLTKSLSFCIYDICYAKTAEERDGYIAYIDELYNANRLTEILSETCSIIGANILNIARQDYEPQGASVTILVSEEPVDPKLIDKTEHPGPLPETVVAHLDKSHICVHTYPESHPEGGLCTFRADIEVSTCGVISPLKALNYLIHQLESDIVTIDYRVRGFTRDINGMKHFIDHEINSIQNFMSDDMKALYDMVDVNVYQENIFHTKMLLKEFDLKHYMFHTKPEDLTDSERQEITAALWKEMREIYYGRNMPAV [P0A7F6]",
    "total protein half-life in vivo": "3.3 h"
  },
  {
    "RECORD_SEQUENCE": "MNTVCTHCQAINRIPDDRIEDAAKCGRCGHDLFDGEVINATGETLDKLLKDDLPVVIDFWAPWCGPCRNFAPIFEDVAQERSGKVRFVKVNTEAERELSSRFGIRSIPTIMIFKNGQVVDMLNGAVPKAPFDSWLNESL [P0AGG4]",
    "total protein half-life in vivo": "2.48 h"
  }
]
